# Study Target: human VPAC1 (Homo sapiens)
# Sequence (P32241 31-457): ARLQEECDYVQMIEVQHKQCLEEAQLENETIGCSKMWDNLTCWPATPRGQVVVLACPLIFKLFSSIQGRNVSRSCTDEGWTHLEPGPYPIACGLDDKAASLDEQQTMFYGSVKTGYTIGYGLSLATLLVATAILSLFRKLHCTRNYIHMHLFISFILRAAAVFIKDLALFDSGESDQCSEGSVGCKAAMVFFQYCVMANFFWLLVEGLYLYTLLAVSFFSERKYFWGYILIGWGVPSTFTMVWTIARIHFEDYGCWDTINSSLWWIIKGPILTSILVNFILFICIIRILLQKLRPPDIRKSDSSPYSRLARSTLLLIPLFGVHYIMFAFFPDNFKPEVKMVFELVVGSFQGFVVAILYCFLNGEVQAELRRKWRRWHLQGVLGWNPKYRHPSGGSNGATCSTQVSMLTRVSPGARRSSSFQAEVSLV
# Assay Info: Filter binding assay, membranes of cells transiently transfected with human VPAC1, 125I-labeled VIP tracer (Table 2)
# Set-up: expressed in transfected cells
# Run Conditions: read-out: Human VPAC1 Receptor Binding
# Description: For this assay, the solutions and equipment include: Presoak solution: 0.5% Polyethyleneamine in Aqua dest. Buffer for flushing filter plates: 25 mM HEPES pH 7.4 Blocking buffer: 25 mM HEPES pH 7.4; 0.2% protease free BSA Assay buffer: 25 mM HEPES pH 7.4; 0.5% protease free BSA Dilution and assay plate: PS-Microplate, U form Filtration Plate Multiscreen FB Opaque Plate; […] Type B Glasfiber filter In order to prepare the filter plates, aspirate the presoak solution by vacuum filtration. […]
Where no end group is shown, it is not given here. [ ]: non-standard residue; d: D form. The star is where a group is joined. Hexanoyl = CCCCCC(=O)*; Aib = CC(C)(N)C(=O)O
pIC50 values by entry
Just the number, please; pIC50 means minus log10 of the concentration in mol/L.

The examples below pair each entry with its known result.
> print(dat)
                                  substance  measurement.label  meas.value
1  HSDAVFTDNYTRLRKQVAAKKYLQSIKNRRYGGPSSGAPPPS [Agonist P25]              pIC50        6.63
2  Hexanoyl-HSDAVFTDNYTRLRKQVAAWKYLQSIKNKRYGGPSSGAPPPS [Agonist P153]              pIC50        6.74
3  Hexanoyl-HSEAVFTDNYTRLRKQVAAKKYLQSIKNKRYGGPSSGAPPPS [Agonist P224]              pIC50        6.68
4  Hexanoyl-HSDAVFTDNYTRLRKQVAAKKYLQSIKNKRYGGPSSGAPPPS [Agonist P31]              pIC50        6.84
5  Hexanoyl-HSDA[dV]FTDNYTRLRKQVAAKKYLQSIKNKRYGGPSSGAPPPS [Agonist P210]              pIC50        6.40

IN: Which pIC50 is reported with human VPAC1 (Homo sapiens) for this entry: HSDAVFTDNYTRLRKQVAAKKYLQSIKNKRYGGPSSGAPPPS [Agonist P6] ?
OUT: 6.71

IN: Which pIC50 is reported with human VPAC1 (Homo sapiens) for this entry: Hexanoyl-HSDAVFTDNYTRLRKQVAAKAYLQSIKNKRYGGPSSGAPPPS [Agonist P184] ?
OUT: 6.49

IN: Which pIC50 is reported with human VPAC1 (Homo sapiens) for this entry: Hexanoyl-HSDAVFTDNYTRLR[Aib]KVAA[Aib]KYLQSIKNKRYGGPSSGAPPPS [Agonist P321] ?
OUT: 6.37

====

# Study Target: human PAC1 (Homo sapiens)
# Sequence (P41586 21-468): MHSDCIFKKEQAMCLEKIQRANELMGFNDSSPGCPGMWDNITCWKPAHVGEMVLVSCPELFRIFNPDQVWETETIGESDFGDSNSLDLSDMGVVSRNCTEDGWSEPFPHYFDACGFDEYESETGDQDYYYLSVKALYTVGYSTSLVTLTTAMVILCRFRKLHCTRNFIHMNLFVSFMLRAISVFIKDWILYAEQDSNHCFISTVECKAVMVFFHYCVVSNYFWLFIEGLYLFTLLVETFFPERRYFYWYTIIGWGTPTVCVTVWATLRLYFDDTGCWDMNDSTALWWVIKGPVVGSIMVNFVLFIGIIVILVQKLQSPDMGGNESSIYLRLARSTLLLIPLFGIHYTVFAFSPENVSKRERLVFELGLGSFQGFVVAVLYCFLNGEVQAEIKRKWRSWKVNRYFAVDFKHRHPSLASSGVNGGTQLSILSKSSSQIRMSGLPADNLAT
# Assay Info: Filter binding assay, membranes of cells transiently transfected with human PAC1, 125I-labeled PACAP-27 tracer (Table 2)
# Set-up: expressed in transfected cells
# Description: For this assay, the solutions and equipment include: Presoak solution: 0.5% Polyethyleneamine in Aqua dest. Buffer for flushing filter plates: 25 mM HEPES pH 7.4 Blocking buffer: 25 mM HEPES pH 7.4; 0.2% protease free BSA Assay buffer: 25 mM HEPES pH 7.4; 0.5% protease free BSA Dilution and assay plate: PS-Microplate, U form Filtration Plate Multiscreen FB Opaque Plate; […] Type B Glasfiber filter In order to prepare the filter plates, aspirate the presoak solution by vacuum filtration. […]
Where no end group is shown, it is not given here. [ ]: non-standard residue; d: D form. Met(O) = CS(=O)CC[C@H](N)C(=O)O
IC50 values by entry
Respond with a number, then the unit of measure.

> print(dat)
                                  substance  meas.value
1  IHSDAVFTDNYTRLRKQVAAKKYLQSIKNKRYGGPSSGAPPPS [Agonist P105]      127 nM
2  H-HSDGVFTDNYTRLRKQVAAKKYLQSIKNKRYGGPSSGAPPPS [Agonist P102]       55 nM
3  [Met(O)]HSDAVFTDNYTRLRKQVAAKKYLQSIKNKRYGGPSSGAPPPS [Agonist P199]      244 nM
4  MHSDAVFTDNYTRLLAKLALQKYLQSIKNKRYGGPSSGAPPPS [Agonist P140]      485 nM

Kindly consider the entry below.
IN: Need IC50 of H-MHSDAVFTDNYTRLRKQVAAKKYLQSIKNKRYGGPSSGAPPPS [Agonist P104] , thanks.
OUT: 117 nM
